Origin of the recorded values: PubChem BioAssay (NCI)

This section presents compounds with their documented growth values.
System: SK-MEL-5 melanoma
Test: NCI-60 one-dose screen, 48 h (100 = growth as untreated, 0 = no growth, -100 = all killed)
Conditions: 10 µM unless noted
This is part of a sample that, as a whole, favours compounds with a hit. Of some 83,000 tested, about 20% had one in any assay.
Assay Readout: growth (%)

compound=CC1=C(CC(=O)c2cccc([N+](=O)[O-])c2)C(=O)c2ccccc2C1=O assay_readout=growth data_value=4.78
compound=Cc1[nH]c2ccccc2c(=O)c1CC=C(Cl)Cl assay_readout=growth data_value=72.2
compound=COc1c(B(O)O)cccc1-c1nc2ccc3n[nH]c(F)c3c2c2c1CCCC2 assay_readout=growth data_value=88.7
compound=CCOc1ccc2c(c1)CN(Cc1ccc(Cl)cc1)CO2 assay_readout=growth data_value=74.1
compound="O=C(c1nc2ccccc2[nH]1)C1C(c2ccc([N+](=O)[O-])cc2)C2CC3CCCCC3N2[C@@]12C(=O)Nc1cc(Cl)ccc12 (stereo not given in full)" assay_readout=growth data_value=-57.1
compound=O=[N+]([O-])c1cc2c(ccc3occc32)o1 assay_readout=growth data_value=-77
compound="O=S1(=O)N(Cc2ccccc2)[C@@H](Cc2ccccc2)C2O[C@H]2[C@H](Cc2ccccc2)N1Cc1ccccc1 (stereo not given in full)" assay_readout=growth data_value=28.3
compound=COc1ccccc1C1=C(Br)C(=O)c2nc(C)ccc2C1=O assay_readout=growth data_value=100
compound=COc1cc(CNC(=O)c2ccsc2Nc2ccnc(C(F)(F)F)c2)ccc1O assay_readout=growth data_value=98.2
compound=COc1ccc(/C=C/C(=O)c2ccc3cc(OC)c(OC)cc3c2)cc1OC assay_readout=growth data_value=36.7
